# MEASUREMENT TARGET: Tumor necrosis factor (Mus musculus)
# EXPERIMENTAL PROTOCOL: In vitro percent inhibition of tumor necrosis factor, alpha secreted by macrophage at the dose 10 ug/mL
# Type: functional
We use 20% as the dividing line for inhibition: on or above the line is fulfilled, below is not fulfilled.

Ask | Entry O=C(O)c1ccc2ncc(C(=O)Nc3ccccc3)c(O)c2c1 : is its inhibition no less than 20%?
Reply | not fulfilled

Ask | Entry O=C(O)c1ccc(NC(=O)c2cnc3ccc(Cl)cc3c2O)cc1 : is its inhibition no less than 20%?
Reply | fulfilled

Ask | Entry O=C(Nc1ccccc1)c1cnc2cc(Cl)ccc2c1O : is its inhibition no less than 20%?
Reply | not fulfilled

Ask | Entry O=C(NCCO)c1cnc2cc(Cl)ccc2c1O : is its inhibition no less than 20%?
Reply | not fulfilled

Ask | Entry CSc1ccc2c(c1)c(O)c(C(=O)N(C)c1ccccc1)c(=O)n2C : is its inhibition no less than 20%?
Reply | not fulfilled

Ask | Entry O=C(Nc1ccc(N(CCO)CCO)cc1)c1cnc2ccccc2c1O : is its inhibition no less than 20%?
Reply | not fulfilled

Ask | Entry CN(C(=O)c1c(O)c2ccccc2n(C)c1=O)c1ccccc1 [ROQUINIMEX] : is its inhibition no less than 20%?
Reply | not fulfilled

Ask | Entry CN(C(=O)c1cnc2cc(C(F)(F)F)ccc2c1O)c1ccccc1 : is its inhibition no less than 20%?
Reply | not fulfilled

Ask | Entry COc1ccc2c(O)c(C(=O)N(C)c3ccccc3)cnc2c1 : is its inhibition no less than 20%?
Reply | fulfilled

Ask | Entry CN(C(=O)c1cnc2cc(Cl)ccc2c1O)c1ccccc1 : is its inhibition no less than 20%?
Reply | not fulfilled

Ask | Entry O=C(O)c1ccc(NC(=O)c2cnc3ccccc3c2O)cc1 : is its inhibition no less than 20%?
Reply | not fulfilled

Ask | Entry CCCN(CCC)C(=O)c1cnc2cc(Cl)ccc2c1O : is its inhibition no less than 20%?
Reply | not fulfilled

Ask | Entry CCN(C(=O)c1cnc2c(C)cc(C)cc2c1O)c1ccccc1 : is its inhibition no less than 20%?
Reply | fulfilled

Ask | Entry CSc1ccc2c(O)c(C(=O)N(C)c3ccccc3)cnc2c1 : is its inhibition no less than 20%?
Reply | fulfilled

====

# MEASUREMENT TARGET: Tumor necrosis factor (Mus musculus) (UniProt P06804)
# Sequence (P06804 whole entry): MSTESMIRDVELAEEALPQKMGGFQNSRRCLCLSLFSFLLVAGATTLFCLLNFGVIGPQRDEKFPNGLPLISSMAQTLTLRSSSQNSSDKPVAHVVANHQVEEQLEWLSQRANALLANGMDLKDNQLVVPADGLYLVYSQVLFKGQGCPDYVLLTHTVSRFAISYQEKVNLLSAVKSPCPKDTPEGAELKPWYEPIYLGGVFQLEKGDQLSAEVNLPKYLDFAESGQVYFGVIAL
# EXPERIMENTAL PROTOCOL: In vitro percent inhibition of tumor necrosis factor, alpha secreted by macrophage at the dose 100 ug/mL
# Format: functional
We use 40% as the dividing line for inhibition: on or above the line is fulfilled, below is not fulfilled.

Ask | Entry CN(C(=O)c1cnc2cc(Cl)ccc2c1O)c1ccccc1 : is its inhibition no less than 40%?
Reply | not fulfilled

Ask | Entry O=C(NCCO)c1cnc2cc(Cl)ccc2c1O : is its inhibition no less than 40%?
Reply | fulfilled

Ask | Entry CSc1ccc2c(O)c(C(=O)N(C)c3ccccc3)cnc2c1 : is its inhibition no less than 40%?
Reply | fulfilled

Ask | Entry CN(C(=O)c1c(O)c2ccccc2n(C)c1=O)c1ccccc1 [ROQUINIMEX] : is its inhibition no less than 40%?
Reply | not fulfilled

Ask | Entry CCN(C(=O)c1cnc2c(C)cc(C)cc2c1O)c1ccccc1 : is its inhibition no less than 40%?
Reply | fulfilled

Ask | Entry COc1ccc2c(O)c(C(=O)N(C)c3ccccc3)cnc2c1 : is its inhibition no less than 40%?
Reply | not fulfilled

Ask | Entry O=C(O)c1ccc(NC(=O)c2cnc3ccccc3c2O)cc1 : is its inhibition no less than 40%?
Reply | not fulfilled

Ask | Entry O=C(Nc1ccccc1)c1cnc2cc(Cl)ccc2c1O : is its inhibition no less than 40%?
Reply | not fulfilled

Ask | Entry O=C(Nc1ccc(N(CCO)CCO)cc1)c1cnc2ccccc2c1O : is its inhibition no less than 40%?
Reply | not fulfilled

====

# MEASUREMENT TARGET: Tumor necrosis factor (Mus musculus) (UniProt P06804)
# EXPERIMENTAL PROTOCOL: In vitro percent inhibition of tumor necrosis factor, alpha secreted by macrophage at the dose 1 ug/mL
# Assay type: functional
We use 10% as the dividing line for inhibition: on or above the line is t, below is f.

Ask | Entry CN(C(=O)c1cnc2cc(Cl)ccc2c1O)c1ccccc1 : is its inhibition no less than 10%?
Reply | t

Ask | Entry COc1ccc2c(O)c(C(=O)N(C)c3ccccc3)cnc2c1 : is its inhibition no less than 10%?
Reply | t

Ask | Entry CCN(C(=O)c1cnc2c(C)cc(C)cc2c1O)c1ccccc1 : is its inhibition no less than 10%?
Reply | t

Ask | Entry CSc1cccc2c(O)c(C(=O)N(C)c3ccccc3)cnc12 : is its inhibition no less than 10%?
Reply | f

Ask | Entry O=C(Nc1ccccc1)c1cnc2cc(Cl)ccc2c1O : is its inhibition no less than 10%?
Reply | t

Ask | Entry CN(C(=O)c1cnc2ccccc2c1O)c1ccccc1 : is its inhibition no less than 10%?
Reply | f

Ask | Entry O=C(O)c1ccc(NC(=O)c2cnc3ccccc3c2O)cc1 : is its inhibition no less than 10%?
Reply | t

Ask | Entry O=C(O)c1ccc2ncc(C(=O)Nc3ccccc3)c(O)c2c1 : is its inhibition no less than 10%?
Reply | t

Ask | Entry O=C(O)c1ccc(NC(=O)c2cnc3ccc(Cl)cc3c2O)cc1 : is its inhibition no less than 10%?
Reply | f

Ask | Entry O=C(Nc1ccc(N(CCO)CCO)cc1)c1cnc2ccccc2c1O : is its inhibition no less than 10%?
Reply | f

Ask | Entry CSc1ccc2c(c1)c(O)c(C(=O)N(C)c1ccccc1)c(=O)n2C : is its inhibition no less than 10%?
Reply | t

Ask | Entry CSc1ccc2c(O)c(C(=O)N(C)c3ccccc3)cnc2c1 : is its inhibition no less than 10%?
Reply | t

Ask | Entry CCCN(CCC)C(=O)c1cnc2cc(Cl)ccc2c1O : is its inhibition no less than 10%?
Reply | t

====

# EXPERIMENTAL PROTOCOL: In vitro percent inhibition of ConA induced T-cell proliferation at the dose 1 ug/mL
# Format: functional
We use 30% as the dividing line for inhibition at 1 µg/mL: on or above the line is 1, below is -1.

Ask | Entry CN(C)CCNC(=O)c1cnc2ccccc2c1O : is its inhibition at 1 µg/mL no less than 30%?
Reply | -1

Ask | Entry CN(C(=O)c1c(O)c2ccccc2n(C)c1=O)c1ccccc1 : is its inhibition at 1 µg/mL no less than 30%?
Reply | 1

Ask | Entry Cc1cc(C)c2ncc(C(=O)NCCN(C)C)c(O)c2c1 : is its inhibition at 1 µg/mL no less than 30%?
Reply | -1

Ask | Entry CCN(C(=O)c1cnc2c(C)cc(C)cc2c1O)c1ccccc1 : is its inhibition at 1 µg/mL no less than 30%?
Reply | 1

Ask | Entry CN(C(=O)c1cnc2ccccc2c1O)c1ccccc1 : is its inhibition at 1 µg/mL no less than 30%?
Reply | -1

Ask | Entry O=C(O)c1ccc(NC(=O)c2cnc3ccc(Cl)cc3c2O)cc1 : is its inhibition at 1 µg/mL no less than 30%?
Reply | -1

Ask | Entry CSc1ccc2c(O)c(C(=O)N(C)c3ccccc3)cnc2c1 : is its inhibition at 1 µg/mL no less than 30%?
Reply | -1

Ask | Entry O=C(Nc1ccccc1)c1cnc2cc(Cl)ccc2c1O : is its inhibition at 1 µg/mL no less than 30%?
Reply | -1

Ask | Entry CSc1cccc2c(O)c(C(=O)N(C)c3ccccc3)cnc12 : is its inhibition at 1 µg/mL no less than 30%?
Reply | -1

Ask | Entry O=C(O)c1ccc(NC(=O)c2cnc3ccccc3c2O)cc1 : is its inhibition at 1 µg/mL no less than 30%?
Reply | -1

Ask | Entry CN(C)CCNC(=O)c1cnc2cc(Cl)ccc2c1O : is its inhibition at 1 µg/mL no less than 30%?
Reply | -1

Ask | Entry O=C(NCCO)c1cnc2cc(Cl)ccc2c1O : is its inhibition at 1 µg/mL no less than 30%?
Reply | 1

Ask | Entry CN(C)CC(C)(C)CNC(=O)c1cnc2ccc(F)cc2c1O : is its inhibition at 1 µg/mL no less than 30%?
Reply | -1

Ask | Entry CSc1ccc2c(c1)c(O)c(C(=O)N(C)c1ccccc1)c(=O)n2C : is its inhibition at 1 µg/mL no less than 30%?
Reply | 1

Ask | Entry CN(C)CCNC(=O)c1cnc2ccc([N+](=O)[O-])cc2c1O : is its inhibition at 1 µg/mL no less than 30%?
Reply | 1

Ask | Entry CN(C)CCNC(=O)c1cnc2cc(F)ccc2c1O : is its inhibition at 1 µg/mL no less than 30%?
Reply | -1

Ask | Entry Cc1ccc2ncc(C(=O)NCCN(C)C)c(O)c2c1 : is its inhibition at 1 µg/mL no less than 30%?
Reply | -1

Ask | Entry CSc1ccc2ncc(C(=O)NCCN(C)C)c(O)c2c1 : is its inhibition at 1 µg/mL no less than 30%?
Reply | -1

Ask | Entry O=C(O)c1ccc2ncc(C(=O)Nc3cccc(Cl)c3)c(O)c2c1 : is its inhibition at 1 µg/mL no less than 30%?
Reply | 1

Ask | Entry CSc1cccc2c(O)c(C(=O)NCCN(C)C)cnc12 : is its inhibition at 1 µg/mL no less than 30%?
Reply | 1

Ask | Entry CN(C(=O)c1cnc2cc(Cl)ccc2c1O)c1ccccc1 : is its inhibition at 1 µg/mL no less than 30%?
Reply | -1

Ask | Entry Cc1cc(C)c2ncc(C(=O)N(C)c3ccccc3)c(O)c2c1 : is its inhibition at 1 µg/mL no less than 30%?
Reply | -1

Ask | Entry O=C(Nc1ccc(N(CCO)CCO)cc1)c1cnc2ccccc2c1O : is its inhibition at 1 µg/mL no less than 30%?
Reply | 1

Ask | Entry CN(C)CC(C)(C)CNC(=O)c1cnc2cc(F)ccc2c1O : is its inhibition at 1 µg/mL no less than 30%?
Reply | -1

Ask | Entry O=C(O)c1ccc2ncc(C(=O)Nc3ccccc3)c(O)c2c1 : is its inhibition at 1 µg/mL no less than 30%?
Reply | 1
